assay: The drug is tested on Anaerotruncus colihominis strain: DSM17241 for biotransformation. The drug concentrations were measured before and after a 12-h incubation by liquid-chromatography-coupled mass spectrometry (LC–MS); conditions: 2 µM
PROPERTY MEASURED: Bacterial Biotransformation

Use the examples below as a reference point.
CN1CCC(=C2c3ccccc3CCc3cccnc32)CC1.O=C(O)/C=C\C(=O)O.O=C(O)/C=C\C(=O)O [AZATADINE MALEATE]: Compound NOT metabolized
CC(C)OC(=O)C(C)(C)Oc1ccc(C(=O)c2ccc(Cl)cc2)cc1 [FENOFIBRATE]: Compound metabolized
CN1C(=O)CC(C)(c2ccccc2)C1=O (centres undefined) [METHSUXIMIDE]: Compound NOT metabolized
Cc1cc(C)cc(OCC2CNC(=O)O2)c1 (centres undefined): Compound NOT metabolized
CN(C)CCC=C1c2ccccc2COc2ccccc21 [DOXEPIN]: Compound NOT metabolized

Bacterial Biotransformation lookup needed for c1ccc([C@H]2CN3CCSC3=N2)cc1 , thanks.
Compound metabolized

What does the data say about its Bacterial Biotransformation? Entry: Cc1ccc(S(=O)(=O)NC(=O)NN2CC3CCCC3C2)cc1 (centres undefined) [GLICLAZIDE]
Compound NOT metabolized

Param item = Br.CN(C)CCCC1(c2ccc(F)cc2)OCc2cc(C#N)ccc21 (centres undefined) [CITALOPRAM HYDROBROMIDE] ; retrieve measured Bacterial Biotransformation.
Compound NOT metabolized

Dear colleague, I am looking for the recorded Bacterial Biotransformation of the following compound: Cc1ccccc1C(OCCN(C)C)c1ccccc1.O=C(O)CC(O)(CC(=O)O)C(=O)O (centres undefined) [ORPHENADRINE CITRATE]
Compound NOT metabolized

###

conditions: bacteroides fragilis, 12 h, 2 µM
Description: The drug is tested on Bacteroides fragilis strain: DS-208 for biotransformation. The drug concentrations were measured before and after a 12-h incubation by liquid-chromatography-coupled mass spectrometry (LC–MS)
PROPERTY MEASURED: Bacterial Biotransformation

C[C@]12C=CC(=O)C=C1CC[C@@H]1[C@@H]2C(=O)C[C@@]2(C)[C@H]1CC[C@]2(O)C(=O)CO [PREDNISONE]: Compound NOT metabolized
CC(=O)CCCCn1c(=O)c2c(ncn2C)n(C)c1=O [PENTOXIFYLLINE]: Compound NOT metabolized
CCN(CC)C(=O)C1(c2ccccc2)CC1CN (stereo unspecified): Compound NOT metabolized
CC(CN(C)C)CN1c2ccccc2CCc2ccccc21.O=C(O)/C=C\C(=O)O (stereo unspecified) [TRIMIPRAMINE MALEATE]: Compound NOT metabolized
COc1ccnc(C[S+]([O-])c2nc3ccc(OC(F)F)cc3[nH]2)c1OC (stereo unspecified) [PANTOPRAZOLE]: Compound metabolized
CC(C)C[C@H]1C(=O)N2CCC[C@H]2[C@]2(O)O[C@](NC(=O)[C@@H]3C=C4c5cccc6[nH]c(Br)c(c56)C[C@H]4N(C)C3)(C(C)C)C(=O)N12.CS(=O)(=O)O [BROMOCRIPTINE MESYLATE]: Compound metabolized

Please find the next compound below.
Fill in: Bacterial Biotransformation of CNCCC(Oc1ccc(C(F)(F)F)cc1)c1ccccc1 (stereo unspecified) [FLUOXETINE] is ___
Compound metabolized

###

settings: enterocloster bolteae, 12 h, 2 µM
Description: The drug is tested on Clostridium bolteae strain: ATCCBAA-613 for biotransformation. The drug concentrations were measured before and after a 12-h incubation by liquid-chromatography-coupled mass spectrometry (LC–MS)
PROPERTY MEASURED: Bacterial Biotransformation

Some entries whose results are on file:
Cc1nc(Nc2ncc(C(=O)Nc3c(C)cccc3Cl)s2)cc(N2CCN(CCO)CC2)n1.O: Compound metabolized
C[C@@H](c1ncncc1F)[C@](O)(Cn1cncn1)c1ccc(F)cc1F: Compound NOT metabolized
Cc1ccc(-c2cc(C(F)(F)F)nn2-c2ccc(S(N)(=O)=O)cc2)cc1: Compound NOT metabolized
CC(C)(C)NC(=O)[C@H]1CC[C@H]2[C@@H]3CC[C@H]4NC(=O)C=C[C@]4(C)[C@H]3CC[C@]12C [FINASTERIDE]: Compound NOT metabolized
CC(C)c1c(CN(C)C(C)Cc2ccccc2)n(C)n(-c2ccccc2)c1=O (stereo not drawn): Compound metabolized
CCOc1cc(CC(=O)N[C@@H](CC(C)C)c2ccccc2N2CCCCC2)ccc1C(=O)O [REPAGLINIDE]: Compound metabolized
CCN(CC)CCNC(=O)c1ccc(NC(C)=O)cc1 [ACECAINIDE]: Compound NOT metabolized

Now examine the next entry.
So what's the measured Bacterial Biotransformation for this one? COc1ccccc1N1CCN(CC(O)COc2cccc3ccccc23)CC1 (stereo not drawn)
Compound NOT metabolized
